- Tested on: Vero E6 infected with SARS-CoV-2
- assay_procedure: inhibition of SARS-CoV-2 cytopathic effect; higher = more antiviral protection, active = above 15
- measurement_setup: 100 nM; 48 h
measured_parameter: inhibition of SARS-CoV-2 cytopathic effect (%)
One number for each entry, in %.

Batch: inhibition of SARS-CoV-2 cytopathic effect for all items listed.
1. O=NN(CCCl)C(=O)NC1CCCCC1
2. O=C1C[C@@]2(C(=O)N1)C(=O)N(Cc1ccc(Br)cc1F)C(=O)c1cccn12
3. CC(C)(N)CC12CC3CC(CC(C3)C1)C2
4. CCCCCCCCCCCCCCCCOc1nc2ccc(C)cc2c(=O)o1

1.76
2.23
-0.66
-0.06

Hello, I would appreciate it if you could give inhibition of SARS-CoV-2 cytopathic effect for each entry below.
1. C#C[C@]1(O)CC[C@H]2[C@@H]3CCC4=CC(=O)CC[C@@H]4[C@H]3C(=C)C[C@@]21CC
2. O=C(NO)c1ccc(O)c(O)c1
3. COCC(=O)Nc1c(I)c(C(=O)NCC(O)CO)c(I)c(C(=O)N(C)CC(O)CO)c1I (configuration not stated) [iopromide]
4. CC[C@H](CO)Nc1nc(Nc2cccc(-c3ccccn3)c2)c2ncn(C(C)C)c2n1

[-4.31, 1.83, -0.01, 0.93]

Batch request: inhibition of SARS-CoV-2 cytopathic effect per item, same order as input.
1. O=C1Cc2c([nH]c3ccc(Br)cc23)-c2ccccc2N1
2. c1ccc(-c2n[nH]cc2-c2ccnc3ccccc23)nc1
3. COC1=C2C[C@@H](C)C[C@H](OC)[C@H](O)[C@@H](C)/C=C(\C)[C@H](OC(N)=O)[C@@H](OC)/C=C\C=C(/C)C(=O)NC(=CC1=O)C2=O
4. O=C(CCCCCN1C(=O)c2cccc3cccc(c23)C1=O)NO
5. Cc1[nH]c2ccc(O)cc2c1CCN [2-methyl-5-hydroxytryptamine]
6. OC[C@H]1OC(O)[C@H](O)[C@@H](O)[C@@H]1O (some centres not stated)
7. CCCCc1ncc(/C=C(\Cc2cccs2)C(=O)O)n1Cc1ccc(C(=O)O)cc1
8. O=C(O)Cc1cccnc1C(=O)O

[0.37, -2.43, 0.35, -3.14, -4.33, 0.12, -0.35, -11.5]

Note down inhibition of SARS-CoV-2 cytopathic effect recorded for C[C@@H]1[C@H](O)[C@@H](C)/C=C/C=C/C=C/C=C/C=C/C=C/C=C/[C@H](O[C@@H]2O[C@H](C)[C@@H](O)[C@H](N)[C@@H]2O)C[C@@H]2O[C@](O)(C[C@@H](O)C[C@@H](O)[C@H](O)CC[C@@H](O)C[C@@H](O)CC(=O)O[C@H]1C)C[C@H](O)[C@H]2C(=O)O
-1.99

---

What SARS-CoV-2 infection rate was measured for each of the following?
- Tested on: Vero E6 infected with SARS-CoV-2
- assay_procedure: SARS-CoV-2 infection rate relative to infected DMSO; higher = more infection, active = 60 or less
- measurement_setup: 24 h
Give bare numbers, in %.

| compound | observed_measurement |
| --- | --- |
| CC(C)c1nnc(-c2ccc(-c3ccccc3)nc2)n1-c1cccc2nonc12 (10 µM) | 103 |
| C=CC[C@@H]1/C=C(\C)C[C@H](C)C[C@H](OC)[C@H]2O[C@@](O)(C(=O)C(=O)N3CCCC[C@H]3C(=O)O[C@H](/C(C)=C/[C@@H]3CC[C@@H](O)[C@H](OC)C3)[C@H](C)[C@@H](O)CC1=O)[C@H](C)C[C@@H]2OC [tacrolimus] (10 µM) | 93 |
| C[C@H](CS)C(=O)N1CCC[C@H]1C(=O)O [captopril] (10 µM) | 104 |
| CCCn1c(=O)[nH]c(=O)c2nc[nH]c21 [enprofylline] (10 µM) | 94 |
| CCn1cc(C(=O)O)c(=O)c2ccc(-c3ccncc3)cc21 [rosoxacin] (10 µM) | 112 |
| CC(N)CCCC(C)(C)O (configuration not stated) [heptaminol] (10 µM) | 111 |

Please examine the following record next.
State its SARS-CoV-2 infection rate: C[C@]12CC[C@@H]3c4ccc(OS(=O)(=O)O)cc4CC[C@H]3[C@@H]1CCC2=O [estropipate] (10 µM)
99

Values were extracted from the supplement of paper PMC13380429.
